Examples of compounds with documented AC50 follow.
- TARGET: Cytochrome P450 3A4 (Homo sapiens, UniProt P08684);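 also: CYP3A4 tested as one member of a cytochrome P450 panel screen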
- Sequence (P08684 whole entry): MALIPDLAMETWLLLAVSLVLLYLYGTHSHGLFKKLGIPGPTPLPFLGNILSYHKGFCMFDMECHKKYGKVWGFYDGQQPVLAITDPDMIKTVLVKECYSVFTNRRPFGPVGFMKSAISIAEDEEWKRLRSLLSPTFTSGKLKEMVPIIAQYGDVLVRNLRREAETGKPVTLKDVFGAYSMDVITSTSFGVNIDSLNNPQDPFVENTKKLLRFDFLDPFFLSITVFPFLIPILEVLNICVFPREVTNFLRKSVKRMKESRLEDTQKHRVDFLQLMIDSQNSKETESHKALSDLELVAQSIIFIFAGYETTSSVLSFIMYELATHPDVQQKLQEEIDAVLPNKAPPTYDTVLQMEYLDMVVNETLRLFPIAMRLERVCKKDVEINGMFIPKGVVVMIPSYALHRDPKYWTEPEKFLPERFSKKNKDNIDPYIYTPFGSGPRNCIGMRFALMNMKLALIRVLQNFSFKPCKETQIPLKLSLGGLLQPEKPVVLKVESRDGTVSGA

Previously resolved entries follow.
INSERT INTO measurements (compound, value_observed) VALUES
  ('CCC(CC)C(=O)Nc1c2c(nn1-c1ccc(OC)cc1)CS(=O)(=O)C2', '25.1 µM (inconclusive)'),
  ('C[N+](C)(C)CCC(=O)c1cccc2ccccc12', '0.2 µM (inconclusive)'),
  ('CCC1=C(C[C@H]2NCCc3cc(OC)c(OC)cc32)C[C@H]2c3ccccc3CCN2C1', '3.16 µM (inconclusive)'),
  ('CSc1nc2n(n1)C(c1cccc(F)c1)C(C(=O)Nc1ccc(C)cc1C)=C(C)N2 (stereo unspecified)', '0.708 µM (inconclusive)'),
  ('COc1ccc(C(=O)N2CCC3(CCCN(Cc4ccccc4)C3)CC2)cc1', '31.6 µM (inconclusive)');

Request: Field: AC50 (Cytochrome P450 3A4 (Homo sapiens, UniProt P08684)). Entry: COc1ccccc1CNC(=O)C1CC(=O)N(C2CCCC2)C1 (stereo unspecified)
Result: 22.4 µM (inconclusive)

Request: Field: AC50 (Cytochrome P450 3A4 (Homo sapiens, UniProt P08684)). Entry: `O=C(N/N=C1/C[C@@H](O)[C@@H](O)[C@@H]2[C@H]3C(=O)N(c4ccc(F)cc4F)C(=O)[C@@H]3CC[C@H]12)OCc1ccccc1`
Result: 3.98 µM (inconclusive)

Request: Field: AC50 (Cytochrome P450 3A4 (Homo sapiens, UniProt P08684)). Entry: `COc1ccc(Cc2nnc(NC(=O)c3ccc(Cl)c([N+](=O)[O-])c3)s2)cc1`
Result: 0.631 µM (inconclusive)

====

- TARGET: Aminopeptidase N (Plasmodium falciparum FcB1/Columbia, UniProt O96935)
- Sequence (O96935 whole entry): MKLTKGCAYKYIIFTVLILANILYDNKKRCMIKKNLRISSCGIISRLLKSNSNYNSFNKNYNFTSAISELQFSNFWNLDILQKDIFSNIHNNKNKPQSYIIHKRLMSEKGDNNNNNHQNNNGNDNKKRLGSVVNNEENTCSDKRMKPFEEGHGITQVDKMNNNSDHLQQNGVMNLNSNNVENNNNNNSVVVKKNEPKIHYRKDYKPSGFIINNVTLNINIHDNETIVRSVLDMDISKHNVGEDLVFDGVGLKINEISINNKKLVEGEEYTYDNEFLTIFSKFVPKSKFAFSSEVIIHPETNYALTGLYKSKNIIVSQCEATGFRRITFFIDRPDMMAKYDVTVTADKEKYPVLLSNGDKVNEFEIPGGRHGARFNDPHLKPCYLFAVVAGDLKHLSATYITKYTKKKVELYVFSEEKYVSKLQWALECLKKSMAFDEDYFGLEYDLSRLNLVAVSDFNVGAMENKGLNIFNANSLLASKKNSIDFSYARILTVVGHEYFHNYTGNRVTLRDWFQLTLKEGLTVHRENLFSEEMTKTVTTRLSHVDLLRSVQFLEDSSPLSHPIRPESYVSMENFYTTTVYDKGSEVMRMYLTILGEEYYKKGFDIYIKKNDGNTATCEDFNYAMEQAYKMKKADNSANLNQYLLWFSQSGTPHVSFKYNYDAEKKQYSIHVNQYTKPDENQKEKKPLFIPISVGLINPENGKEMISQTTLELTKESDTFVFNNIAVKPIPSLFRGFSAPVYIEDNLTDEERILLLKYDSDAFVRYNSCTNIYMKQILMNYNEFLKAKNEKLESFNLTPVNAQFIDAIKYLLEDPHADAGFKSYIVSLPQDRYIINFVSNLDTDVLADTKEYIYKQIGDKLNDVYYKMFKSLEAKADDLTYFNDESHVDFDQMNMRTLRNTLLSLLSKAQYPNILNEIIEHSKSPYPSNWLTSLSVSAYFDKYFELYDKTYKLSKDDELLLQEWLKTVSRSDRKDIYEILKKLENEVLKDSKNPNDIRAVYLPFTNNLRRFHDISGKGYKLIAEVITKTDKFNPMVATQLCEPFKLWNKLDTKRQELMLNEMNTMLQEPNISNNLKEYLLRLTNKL
- TEST_SUMMARY: P. falciparum M1AAP inhibitors, biochemical, fluorogenic H-Leu-NHMec substrate, 1536-well (AID 1445)
- Set-up: species or system Plasmodium falciparum 3D7, 3D7
The source made the active and inactive calls.
MEASURE: IC50

Previously resolved entries follow.
INSERT INTO results (smiles_structure, value_observed) VALUES
  ('O=C(O)COc1ccccc1/C=N/Nc1ccc(S(=O)(=O)Nc2ccc(Cl)cc2)cc1[N+](=O)[O-]', '38.9 µM (active)'),
  ('CCc1c(C)c2ccc(O)c(CN(C)C)c2oc1=O', '28.9 µM (active)'),
  ('O=C(Nc1cc(S(=O)(=O)N2CCCCC2)ccc1Cl)c1ccccc1NS(=O)(=O)c1ccc(F)cc1', '44.9 µM (active)'),
  ('COc1cc(/C=C2/SC(=S)NC2=O)ccc1OS(=O)(=O)c1ccc(C)cc1', '51.8 µM (active)');

Now for the molecule whose IC50 we want.
Request: What does the data say about its IC50? Entry: `O=C1/C(=C/C=C/c2ccco2)SC(=S)N1NS(=O)(=O)c1ccccc1`
Result: 22.6 µM (active)

====

Examples of molecules with documented AC50 follow.
- TARGET: FAD-linked sulfhydryl oxidase ALR (Homo sapiens)
- Sequence (P55789 whole entry): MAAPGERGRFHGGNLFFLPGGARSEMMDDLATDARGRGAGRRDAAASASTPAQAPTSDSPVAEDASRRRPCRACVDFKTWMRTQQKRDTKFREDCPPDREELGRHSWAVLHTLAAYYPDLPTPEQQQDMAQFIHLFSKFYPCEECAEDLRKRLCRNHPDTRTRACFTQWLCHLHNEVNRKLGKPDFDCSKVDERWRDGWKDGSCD
- TEST_SUMMARY: inhibitors of human ALR sulfhydryl oxidase, dose response, biochemical, H2O2 detection, luminescence, cherry-pick (AID 493248)
Activity calls are given as the source filed them.

Previously resolved entries follow.
INSERT INTO measurements (molecule, measure, value_observed) VALUES
  ('Oc1ccc(/C=N/N=C/c2ccc(O)c(O)c2)cc1O', 'AC50', '0.543 µM (active)'),
  ('Cc1ccc(S(=O)(=O)Nc2ccc(O)c3ncccc23)cc1', 'AC50', '5.2 µM (active)'),
  ('CN(C)c1ccc(/C=N/NC(=O)c2ccc3c(c2)OCO3)cc1', 'AC50', '4.72 µM (active)'),
  ('Cc1cccc(-n2c(-c3ccoc3C)n[nH]c2=S)c1', 'AC50', '7.34 µM (active)'),
  ('CNc1ccc(C2(O)C(=O)c3ccccc3C2=O)cc1', 'AC50', '0.664 µM (active)');

Request: Field: AC50 (FAD-linked sulfhydryl oxidase ALR (Homo sapiens)). Entry: `Cc1cccc(OCc2nnc(S)n2-c2ccccc2)c1`
Result: 1.6 µM (active)

Request: Field: AC50 (FAD-linked sulfhydryl oxidase ALR (Homo sapiens)). Entry: `CCN(CC)C(=O)c1csc(Nc2ccc(C)cc2)n1`
Result: 5.19 µM (active)

Request: Field: AC50 (FAD-linked sulfhydryl oxidase ALR (Homo sapiens)). Entry: CN1c2ccc([N+](=O)[O-])cc2C(C)(C)C12C=Cc1cc(C(=O)O)ccc1O2 (configuration not stated)
Result: 1.47 µM (active)

Request: Field: AC50 (FAD-linked sulfhydryl oxidase ALR (Homo sapiens)). Entry: `Sc1nnc(-c2ccccc2)c(-c2ccccc2)n1`
Result: 0.567 µM (active)

Request: Field: AC50 (FAD-linked sulfhydryl oxidase ALR (Homo sapiens)). Entry: `CNS(=O)(=O)c1cnccc1N1CCN(c2cccc(C)c2)CC1`
Result: < 0.005 µM (active)

Request: Field: AC50 (FAD-linked sulfhydryl oxidase ALR (Homo sapiens)). Entry: CCCCC(NC(=O)CCc1c(C)c2cc3c4c(oc3c(C)c2oc1=O)CCCC4)C(=O)O (configuration not stated)
Result: 7.78 µM (active)

Request: Field: AC50 (FAD-linked sulfhydryl oxidase ALR (Homo sapiens)). Entry: `Cc1ccccc1N=Nc1c(N)n[nH]c1N`
Result: 5.72 µM (active)

====

- TARGET: Heat shock factor protein 1 (Mus musculus)
- Sequence (P38532 whole entry): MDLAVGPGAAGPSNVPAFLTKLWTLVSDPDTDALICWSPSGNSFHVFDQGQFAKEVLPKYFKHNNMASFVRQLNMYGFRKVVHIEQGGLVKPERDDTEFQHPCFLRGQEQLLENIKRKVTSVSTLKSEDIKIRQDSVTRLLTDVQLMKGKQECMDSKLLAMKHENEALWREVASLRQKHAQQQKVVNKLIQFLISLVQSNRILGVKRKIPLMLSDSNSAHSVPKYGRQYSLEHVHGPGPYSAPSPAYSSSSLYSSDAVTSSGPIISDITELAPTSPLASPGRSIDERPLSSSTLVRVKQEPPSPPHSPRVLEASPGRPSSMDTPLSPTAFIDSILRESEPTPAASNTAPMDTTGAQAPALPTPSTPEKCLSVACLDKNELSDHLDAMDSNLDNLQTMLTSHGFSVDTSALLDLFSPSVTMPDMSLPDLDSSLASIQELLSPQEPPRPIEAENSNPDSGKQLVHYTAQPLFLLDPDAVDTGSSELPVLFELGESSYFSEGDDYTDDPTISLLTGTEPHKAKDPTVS
- TEST_SUMMARY: HSF1 potentiators in luciferase reporter cells, confirmation, cell-based, NIH3T3, luminescence, dose retest (AID 435004);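 also: stress induced by proteasome inhibitor MG132 added 30 min after compound; luciferase reporter driven by HSF1 response element in NIH3T3 cells; actives raise luminescence as potentiators of the MG132 stress response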
- Type: functional
Calls of active or inactive are those of the source.
Respond using exactly one of the listed classes: class 1 (active), class 0 (inactive)

See these solved cases before continuing.
INSERT INTO measurements (molecule, group_label) VALUES
  ('CCOC(=O)C(=Cc1cc(=O)c(OC)co1)C(=O)OCC', 'class 1'),
  ('CCOC(=O)N1CCC(NC(=O)c2cccs2)CC1', 'class 0'),
  ('Fc1ccc(CN2CCN(c3ncnc4scc(-c5ccccc5)c34)CC2)cc1', 'class 0'),
  ('COc1cc2c3c(c1OC)C1(C=CC(=O)C=C1)CC3N(C(=O)c1ccccc1)CC2 (configuration not stated)', 'class 0'),
  ('COc1cccc(/C=N/NC(=S)NC2CC3CC2C2C=CCC32)c1O (configuration not stated)', 'class 0');

Request: // return assay outcome for `Cc1nc(CN2CCN(Cc3nc(C(c4ccccc4)c4ccccc4)no3)CC2)cs1`
Result: class 0

Request: // return assay outcome for `O=C(CS(=O)(=O)c1ccccc1)c1cc2cc(F)ccc2oc1=O`
Result: class 0

Request: // return assay outcome for `CCOc1ccc(C(=O)N2CCN(S(=O)(=O)c3cccs3)CC2)c(OCC)c1`
Result: class 0

Request: // return assay outcome for Cc1cc(C)cc(OCC(O)CN2C(=O)NC(C)(C)C2=O)c1 (configuration not stated)
Result: class 0

Request: // return assay outcome for `Cc1cccc(N(CC(=O)Nc2ccccc2-c2ccccc2)S(=O)(=O)c2ccccc2)c1C`
Result: class 0

Request: // return assay outcome for CC(C)=C1C2CCC1C1C(=O)N(c3nc(-c4ccccc4)c(C)s3)C(=O)C21 (configuration not stated)
Result: class 0

Request: // return assay outcome for CCOC(=O)CN1C=C(c2ccc3ccccc3n2)C(C[N+](=O)[O-])c2ccccc21 (configuration not stated)
Result: class 1
